Molecular target: Wee1 (h) (Homo sapiens, UniProt P30291)
Sequence (P30291 whole entry): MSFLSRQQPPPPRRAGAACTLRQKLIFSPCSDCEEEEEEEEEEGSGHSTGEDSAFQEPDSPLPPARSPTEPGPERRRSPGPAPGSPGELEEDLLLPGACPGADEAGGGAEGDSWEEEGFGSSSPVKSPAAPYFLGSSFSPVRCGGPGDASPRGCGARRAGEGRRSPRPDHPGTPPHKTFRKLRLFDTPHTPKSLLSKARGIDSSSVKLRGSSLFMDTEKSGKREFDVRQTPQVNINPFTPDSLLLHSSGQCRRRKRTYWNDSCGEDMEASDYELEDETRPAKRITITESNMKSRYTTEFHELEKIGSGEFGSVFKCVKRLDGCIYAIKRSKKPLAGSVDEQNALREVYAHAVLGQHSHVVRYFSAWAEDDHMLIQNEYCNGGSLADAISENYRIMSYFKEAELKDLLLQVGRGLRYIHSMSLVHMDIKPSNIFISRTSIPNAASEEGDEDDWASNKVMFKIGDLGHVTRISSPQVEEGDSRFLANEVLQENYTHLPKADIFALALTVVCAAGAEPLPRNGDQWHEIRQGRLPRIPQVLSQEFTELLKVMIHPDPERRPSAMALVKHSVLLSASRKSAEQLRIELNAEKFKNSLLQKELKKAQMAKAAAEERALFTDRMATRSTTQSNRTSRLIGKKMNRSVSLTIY
Experiment: Wee1 kinase (h) detection method, [γ-33P]-ATP filter assay
Assay type: biochemical
Settings: C 1 μm compound
Experimental: Determination of the inhibitory effect of 6-(2-chlorophenyl)-2-((4-(4-methylpiperazin-1-yl)phenyl)amino)-8,9-dihydroimidazo[1,2-a]pyrimido[5,4-e]pyrimidin-5(6H)-one and Analogs on the Enzyme Activity of Wee1 Kinase by Using the Wee1 Kinase (h) Detection Method Then the stock solution of all compounds under test with 50× concentration in 100% DMSO was added to make the final concentration of 10/1/0.1/0.01 μM, and then mixed the mixture well. […]
ASSAY_READOUT: Inh. (%) of Wee1 kinase enzyme activity
Reply numerically in %, unit not repeated.

[in] Given the compound `Cc1cccc(Cl)c1N1C(=O)c2cnc(Nc3cc(Cl)c(N4CCN(C)CC4)c(Cl)c3)nc2N2CCN=C21` , write its reported Inh. (%) of Wee1 kinase enzyme activity.
[out] 91

[in] Given the compound `Cc1cccc(C)c1N1C(=O)c2cnc(Nc3ccc4c(c3)CN(C)CC4(C)C)nc2N2CCN=C21` , write its reported Inh. (%) of Wee1 kinase enzyme activity.
[out] 98
